The following compounds are listed with their measured IC50 values.
Target: UniProtKB Q9Y2K2
Assay: SIK3 kinase activity, Eurofins KinaseProfiler ([γ-33P]-ATP filter assay)
Assay type: biochemical
Conditions: Table 5, macrocycle precursors
Note: unit nM is implicit; provide only the numeric part.

> print(dat)
                                   molecule  measured.attribute  test.result
1  Cc1cccc(C)c1N1Cc2cnc(Nc3ccc(N4CCN(C)CC4)c(CO)c3)nc2N(CCCCC(=O)O)C1=O                IC50           21
2  COC(=O)CCCN1C(=O)N(c2c(C)cccc2C)Cc2cnc(Nc3ccc(N4CCN(C)CC4)c(CO)c3)nc21                IC50            8
3  Cc1cccc(C)c1N1Cc2cnc(Nc3ccc(N4CCN(C)CC4)c(CO)c3)nc2N(CCC(=O)O)C1=O                IC50           43

// below: IC50 requested for another compound
What value of IC50 has been reported for the following compound? Cc1cccc(C)c1N1Cc2cnc(Nc3ccc(N4CCN(C)CC4)c(CO)c3)nc2N(CCCC(=O)O)C1=O
21

* * *

The following molecules are listed with their measured IC50 values.
Biological target: UniProtKB Q9Y2K2
Test: SIK3 kinase activity, Eurofins KinaseProfiler ([γ-33P]-ATP filter assay)
Format: biochemical
Conditions: Table 6, macrocycles
Note: unit nM is implicit; provide only the numeric part.

These solved cases illustrate the format of a correct answer.
> print(dat)
                                   molecule  test.result
1  Cc1cccc(C)c1N1Cc2cnc3nc2N(CCC(=O)OCc2cc(ccc2N2CCN(C)CC2)N3)C1=O           18
2  Cc1cccc(C)c1N1Cc2cnc3nc2N(CCCCOC(=O)c2cc(ccc2N2CCN(C)CC2)N3)C1=O            2

What value of IC50 has been reported for the following molecule? COc1cc(Br)c2cc1Nc1ncc3c(n1)N(CCCC(=O)OC2)C(=O)N(c1c(C)cccc1C)C3
339

What value of IC50 has been reported for the following molecule? Cc1cccc(C)c1N1Cc2cnc3nc2N(CCCC(=O)OCc2cc(ccc2N2CCN(C)CC2)N3)C1=O
3

* * *

Target: SIK2 (h) (Homo sapiens (Human))
Experiment: SIK2 kinase activity, Eurofins KinaseProfiler ([γ-33P]-ATP filter assay)
Format: biochemical
Details: Table 6, macrocycles; read-out: IC50 nM SIK2
Description: SIK1, 2 and 3 kinase activity was assessed using a Eurofins Cerep S.A. (‘Eurofins’) KinaseProfiler. All compounds were prepared to 50× final assay concentration in 100% DMSO. This working stock of the compound was added to the assay well as the first component in the reaction, followed by the remaining components as detailed in the general assay protocols below. […]
The following compounds are listed with their measured IC50 values.
Note: unit nM is implicit; provide only the numeric part.

> print(dat)
                                   compound                      test.target  test.result
1  Cc1cccc(C)c1N1Cc2cnc3nc2N(C/C=C/CCOC(=O)c2cc(ccc2N2CCN(C)CC2)N3)C1=O  SIK2 (h) (Homo sapiens (Human))            1
2  Cc1cccc(C)c1N1Cc2cnc3nc2N(CCCCOC(=O)c2cc(ccc2N2CCN(C)CC2)N3)C1=O  SIK2 (h) (Homo sapiens (Human))          0.7
3  Cc1cccc(C)c1N1Cc2cnc3nc2N(CCCC(=O)OCc2cc(ccc2N2CCN(C)CC2)N3)C1=O  SIK2 (h) (Homo sapiens (Human))            2
4  Cc1cccc(C)c1N1Cc2cnc3nc2N(CCCOC(=O)Cc2cc(ccc2N2CCN(C)CC2)N3)C1=O  SIK2 (h) (Homo sapiens (Human))          0.6
5  Cc1cccc(C)c1N1Cc2cnc3nc2N(CCCCC(=O)OCc2cc(ccc2N2CCN(C)CC2)N3)C1=O  SIK2 (h) (Homo sapiens (Human))          0.8

What value of IC50 has been reported for the following compound? Cc1cccc(C)c1N1Cc2cnc3nc2N(CCC(=O)OCc2cc(ccc2N2CCN(C)CC2)N3)C1=O
3

What value of IC50 has been reported for the following compound? COc1cc(Br)c2cc1Nc1ncc3c(n1)N(CCCC(=O)OC2)C(=O)N(c1c(C)cccc1C)C3
201

What value of IC50 has been reported for the following compound? Cc1cccc(C)c1N1Cc2cnc3nc2N(C/C=C/COC(=O)Cc2cc(ccc2N2CCN(C)CC2)N3)C1=O
17

What value of IC50 has been reported for the following compound? Cc1cccc(C)c1N1Cc2cnc3nc2N(CCCCOC(=O)C(C)c2cc(ccc2N2CCN(C)CC2)N3)C1=O (stereo not shown)
2

What value of IC50 has been reported for the following compound? Cc1cccc(C)c1N1Cc2cnc3nc2N(CCCOC(=O)C(C)c2cc(ccc2N2CCN(C)CC2)N3)C1=O (stereo not shown)
3

What value of IC50 has been reported for the following compound? Cc1cccc(C)c1N1Cc2cnc3nc2N(C/C=C/CC(=O)OCc2cc(ccc2N2CCN(C)CC2)N3)C1=O
2

What value of IC50 has been reported for the following compound? Cc1cccc(C)c1N1Cc2cnc3nc2N(CCCCOC(=O)Cc2cc(ccc2N2CCN(C)CC2)N3)C1=O
250

What value of IC50 has been reported for the following compound? Cc1cccc(C)c1N1Cc2cnc3nc2N(CCCCCOC(=O)c2cc(ccc2N2CCN(C)CC2)N3)C1=O
1
